Tested on: NCI-H460
EXPERIMENT DESCRIPTION: Cytotoxicity against human NCI-H460 cells after 24 hrs by MTT assay
Format: functional, cell-based
TEST SETTINGS: NCI-H460, 24 h
pIC50: −log10 of the molar value.
We use 7 as the dividing line for pIC50: on or above the line is true (1), below is false (0).

Solved entries (count: 2):
Hi team, for C=C1C(=O)O[C@H]2[C@@H](OC(C)=O)[C@@H]1[C@H](OC(=O)C(C)(C)O)[C@H](C(=C)C=O)[C@@]2(C)[C@@H]1CO1 (relative stereo) , is the recorded pIC50 at or above 7?
false (0)

Evaluate C=C1C(=O)O[C@H]2[C@@H](OC(C)=O)[C@@H]1[C@H](OC(=O)C(C)(O)CC)[C@H](C(=C)C=O)[C@@]2(C)[C@@H]1CO1 (relative stereo) [ZINAGRANDINOLIDE A] : pIC50 at minimum 7?
false (0)

Others:
Hi team, for C=C[C@@]1(C)[C@H]2OC(=O)C(=C)[C@H]([C@@H]2OC(C)=O)[C@H](OC(=O)C(C)(C)O)[C@@H]1C(=C)C=O (relative stereo) [ZINAGRANDINOLIDE C] , is the recorded pIC50 at or above 7?
false (0)

Does pIC50 meet or surpass 7 for COc1cccc2c1C(=O)c1c(O)c3c(c(O)c1C2=O)C[C@@](O)(C(=O)CO)C[C@@H]3O[C@H]1C[C@H](N)[C@H](O)[C@H](C)O1 [DOXORUBICIN] ?
true (1)

Confirm if pIC50 reported for the compound C=C[C@@]1(C)[C@H]2OC(=O)C(=C)[C@H]([C@@H]2OC(C)=O)[C@H](OC(=O)C(C)(O)CC)[C@@H]1C(=C)C=O (relative stereo) [ZINAGRANDINOLIDE B] is 7 or above.
false (0)
